# Assayed System: CaRvs167-3
# Method: SPOT peptide array binding signal intensity (averaged, normalized) (arbitrary units (background-subtracted, floor 0; scale differs between SH3 domains)); higher = stronger binding of the SH3 domain to the peptide
Form field: SPOT peptide array binding signal intensity (one value per entry).
Lab note: write the figure by itself, no unit.

Binder	Measured Result
NAGIRPKFILALNDE	17

Query: Would you kindly share the measured SPOT peptide array binding signal intensity for GATNNAPTLPKRKNP ?
Response: 3.25

Query: // returns reported SPOT peptide array binding signal intensity for input APPLPPTAPPPPSLP
Response: 2.5

Query: Can you look up the measured SPOT peptide array binding signal intensity of LLLLFVPDSPYDPAI for me?
Response: 3.5

Query: Data request, read-out SPOT peptide array binding signal intensity, for LKVTPGRRAPTISKI
Response: 27.5
